A collection of compounds and their measured Papp
- experimental_context: pampa; pH 5.0; 30.0 min; 50.0 µM
Value expressed in ×10⁻⁶ cm/s; do not type the unit.

Field: example entries. Status: answers known.
> print(dat)
                                   compound  value.reported
1  CCOc1ccc(CNC(=O)CCCn2nc(C)c3c(C)n(-c4ccc(C)cc4)nc3c2=O)cc1             582
2  O=C(NCc1ccc(S(=O)(=O)c2cccc(C(F)(F)F)c2)cc1)c1cnc2[nH]ncc2c1             362
3  C[C@H]1CCC[C@H](O)CCC/C=C/c2cc(O)cc(O)c2C(=O)O1             795
4  O=C(Nc1ccc(Oc2ccnc3[nH]ccc23)c(F)c1)c1cccn(-c2ccc(F)cc2)c1=O            9.36
5  Cc1ccc(-n2nc3c(=O)n(CCCC(=O)NCc4ccccc4F)nc(C)c3c2C)cc1             291

Prompt: Entry under review: `C[C@H]1CN(C(=O)c2nn(C)c3ccccc23)C[C@@H]1c1nc(-c2cccnc2)no1` . Reported Papp?
Completion: 739

Prompt: Entry under review: `Cc1ccc(-n2c(=O)c3oc4ccccc4c3n(CC(=O)Nc3ccc(F)c(Cl)c3)c2=O)cc1C` . Reported Papp?
Completion: 583

Prompt: Entry under review: `Cc1ccccc1C(=O)Nc1ccc2c(c1)CCCN2C(=O)c1cccs1` . Reported Papp?
Completion: 561

Prompt: Entry under review: `N#Cc1ccc(C(=O)Nc2ccc(Cl)c(-c3nc4cc(Cl)ccc4o3)c2)c(F)c1` . Reported Papp?
Completion: 679

Prompt: Entry under review: Cc1ccc(C)c(CN2C(=O)c3ccccc3S(=O)c3ccc(C(=O)N4CCN(c5ccccc5F)CC4)cc32)c1 (stereo not given) . Reported Papp?
Completion: 932

Prompt: Entry under review: CCOC(=O)c1ccc(N2C(=O)c3n[nH]c(-c4cccs4)c3C2c2ccc(OCC)cc2)cc1 (stereo not given) . Reported Papp?
Completion: 448
